So I've got a bunch of compounds here, and I need their % Inhibition @ 3 μM values.
- targetOrTestSystem: UniProt:P15207
- Sequence (P15207 whole entry S389L): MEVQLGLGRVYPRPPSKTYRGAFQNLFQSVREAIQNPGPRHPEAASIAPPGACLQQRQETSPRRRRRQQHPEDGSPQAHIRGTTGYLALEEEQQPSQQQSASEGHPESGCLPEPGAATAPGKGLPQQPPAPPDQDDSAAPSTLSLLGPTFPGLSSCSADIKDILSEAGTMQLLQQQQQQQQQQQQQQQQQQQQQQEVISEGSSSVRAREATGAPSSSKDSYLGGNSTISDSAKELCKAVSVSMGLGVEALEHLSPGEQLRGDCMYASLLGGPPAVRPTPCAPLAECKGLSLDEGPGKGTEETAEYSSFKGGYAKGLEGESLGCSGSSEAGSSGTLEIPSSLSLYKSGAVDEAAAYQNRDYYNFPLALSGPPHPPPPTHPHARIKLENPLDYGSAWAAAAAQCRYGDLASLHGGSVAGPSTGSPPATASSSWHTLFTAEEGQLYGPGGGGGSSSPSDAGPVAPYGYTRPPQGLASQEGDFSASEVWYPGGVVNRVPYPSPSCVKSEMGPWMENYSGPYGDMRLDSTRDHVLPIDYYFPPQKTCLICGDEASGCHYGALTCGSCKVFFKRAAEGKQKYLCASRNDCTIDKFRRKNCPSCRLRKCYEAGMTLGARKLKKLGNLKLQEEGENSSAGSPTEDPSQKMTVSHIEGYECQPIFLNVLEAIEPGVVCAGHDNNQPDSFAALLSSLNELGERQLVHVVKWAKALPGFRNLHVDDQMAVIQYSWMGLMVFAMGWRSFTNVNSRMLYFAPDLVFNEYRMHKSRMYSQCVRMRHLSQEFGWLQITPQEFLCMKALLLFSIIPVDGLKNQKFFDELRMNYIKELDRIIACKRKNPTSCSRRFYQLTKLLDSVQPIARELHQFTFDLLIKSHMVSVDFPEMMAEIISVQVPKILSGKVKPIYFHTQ
- testDescription: Androgen receptor binding using rat ventral prostate cytosol
- Parameters: Male Sprague Dawley or Wistar rats (Charles River, 200-300 g) were used for each preparation; from tissue; host or cells: ventral prostate cytosol of castrated male Sprague Dawley or Wistar rats
One number for each entry, in %.

Each compound below has a reported value. Please supply its % Inhibition @ 3 μM.
1. CC1(C(=O)Nc2cc(C(F)(F)F)cc(C(F)(F)F)c2)CN(c2ccc(F)cc2)C(=O)N1 (racemic)
2. COc1ccc(N2CC(C)(C(=O)Nc3ccc(C#N)c(C(F)(F)F)c3)NC2=O)cc1 (racemic)
3. CC1(C(=O)Nc2ccc(C(F)(F)F)nc2)CN(c2ccccc2)C(=O)N1 (racemic)
4. COC(=O)C1(C)CN(c2ccc(Cl)c(C(F)(F)F)c2)C(=O)N1 (racemic)

output:
1: −17; 2: 29; 3: −75; 4: 24

Look at each compound and report its % Inhibition @ 3 μM.
1. CC1(C(=O)Nc2ccc(C#N)c(C(F)(F)F)c2)CN(Cc2ccc(F)cc2)C(=O)N1 (racemic)
2. CC1(C(=O)O)CN(c2ccccc2)C(=O)N1 (racemic)
3. CC1(C(=O)Nc2ccc(C#N)c(C(F)(F)F)c2)CN(c2ccccc2)C(=O)N1 (racemic)
4. COC(=O)C1(C)CN(c2ccccc2)C(=O)N1 (racemic)

output:
[4, "−110", 1, "−71"]

Below are some compounds; for each one, tell me its % Inhibition @ 3 μM.
1. CC1(C(=O)O)CN(c2ccc(Cl)c(C(F)(F)F)c2)C(=O)N1 (racemic)
2. COC(=O)C1(C)CN(c2ccc(C#N)c(C(F)(F)F)c2)C(=O)N1 (racemic)
3. CC1(C(=O)Nc2cccc(C(F)(F)F)c2)CN(c2ccc(F)cc2)C(=O)N1 (racemic)
4. COC(=O)C1(C)CN(c2ccc(OC)cc2)C(=O)N1 (racemic)
5. CC1(C(=O)Nc2ccc([N+](=O)[O-])c(C(F)(F)F)c2)CN(c2ccccc2)C(=O)N1 (racemic)

output:
[28, "−68", 23, "−36", "−71"]

# batch size: 2; output % Inhibition @ 3 μM per entry
1. CC1(C(=O)Nc2ccccc2)CN(c2ccccc2)C(=O)N1 (racemic)
2. CC1(C(=O)Nc2ccc(Cl)c(C(F)(F)F)c2)CN(c2ccc(F)cc2)C(=O)N1 (racemic)

output:
−68
66

Dear colleague, could you send me % Inhibition @ 3 μM for each of the items below? Thanks.
1. COc1ccc(N2CC(C)(C(=O)O)NC2=O)cc1 (racemic)
2. CC1(C(=O)O)CN(c2ccc(C#N)c(C(F)(F)F)c2)C(=O)N1 (racemic)

output:
["−21", "−67"]
